Experimental Details: PK of compound of Formula (Ia) after single subcutaneous dose of solution formulations in beagle dogs
Type: in vivo
Setup Conditions: male, beagle, dog, plasma, sc, 12 mg/kg, mean ± SD, n = 3 dogs; SC 12 mg/kg; solution T, 400 mg/mL; read-out: AUC0-2016 h
Description: Formulations containing the compound of Formula (Ia), or a pharmaceutically acceptable salt thereof, were prepared as solutions and optionally administered subcutaneously or intramuscularly to rats, rabbits, and/or dogs. A solution of about 400 mg/mL of the compound of Formula (Ia) having 17.00 w/w % water, 36.40 w/w % PEG 300, 35.20 w/w % of a sodium salt of a compound of Formula (Ia), 5.00 w/w % ethanol, and 6.40 w/w % poloxamer 188 was prepared. […]
Result Type: AUC(0-t) (µM·h)
Provide the reading as a plain figure in µM·h.

// lookup AUC(0-t) for CC(C)(C#Cc1ccc(-c2ccc(Cl)c3c(NS(C)(=O)=O)nn(CC(F)(F)F)c23)c([C@H](Cc2cc(F)cc(F)c2)NC(=O)Cn2nc(C(F)(F)F)c3c2C(F)(F)[C@@H]2C[C@H]32)n1)S(C)(=O)=O [compound of Formula (Ia)] 213
